system: Pseudomonas fluorescens FW300-N2E2; conditions: medium / electron acceptor: N2E2 Glucose/aerobic 0.25xMinerals
Examples of molecules with documented IC50 growth inhibition follow.

Some entries whose results are on file:
{"MOLECULE": "[I-].[Na+] [sodium iodide]", "READOUT": "IC50 growth inhibition", "DATA_VALUE": "> 500 mM"}
{"MOLECULE": "O.O.O.O.O.O.O.O=[As]([O-])([O-])O.[Na+].[Na+] [Sodium arsenate dibasic heptahydrate]", "READOUT": "IC50 growth inhibition", "DATA_VALUE": "< 0.244 mM"}
{"MOLECULE": "O.[Au+3].[Cl-].[Cl-].[Cl-] [gold (III) chloride hydrate]", "READOUT": "IC50 growth inhibition", "DATA_VALUE": "0.00197 mM"}
{"MOLECULE": "[F-].[Na+] [sodium fluoride]", "READOUT": "IC50 growth inhibition", "DATA_VALUE": "< 0.244 mM"}

We next turn to a different molecule, shown below.
[Q] Look up and state reported IC50 growth inhibition for OCl [Sodium hypochlorite]
[A] > 5 mM
